test system: MOLM-13 AML cells; experiment: Leukemia cell proliferation, comparison of DHODH inhibitors; assay type: cell-based; conditions: Homo sapiens, MOLM-13, 96 h, proliferation (FIG. 4d)
experimental-endpoint: IC50

Q: Item `COc1ccc([C@H]2c3[nH]c4ccc(Cl)cc4c3CCN2C(=O)Oc2ccc(Cl)cc2)cc1` has what recorded IC50?
Ans: ~1 nM

====

The entries below come with measured ^15N-DHO values attached.
tested on: de novo pyrimidine nucleotide synthesis in HT1080 cells; test: 15N-glutamine tracing study: pyrimidine nucleotide synthesis metabolites by LC-MS/MS; assay type: cell-based, human; conditions: cells treated 100 nm for 8 hours in presence of 15N-glutamine; BLDL = Below Detection Limits
Express it in µM; write the number only.

Below, each entry is followed by its recorded ^15N-DHO result.
compound: COc1ccc([C@H]2c3[nH]c4ccc(Cl)cc4c3CCN2C(=O)Oc2ccc(Cl)cc2)cc1 [Cpd 1]
system-name: de novo pyrimidine nucleotide synthesis in HT1080 cells
experimental-endpoint: ^15N-DHO
assay-result: 18.1
--
compound: Cc1c(-c2ccc(-c3ccccc3F)cc2)nc2ccc(F)cc2c1C(=O)O [Brequinar, brequinar, reference compound]
system-name: de novo pyrimidine nucleotide synthesis in HT1080 cells
experimental-endpoint: ^15N-DHO
assay-result: 11.9

Q: ^15N-DHO of NC(=O)c1[nH]nc([C@@H]2O[C@H](COP(=O)(O)O)[C@@H](O)[C@H]2O)c1O [Pyrazofurin-MP, pyrazofurin-monophosphate, reference compound] on de novo pyrimidine nucleotide synthesis in HT1080 cells?
Ans: 1.3

Data credit: patent US11458126B2
